test system: P388; test: Antitumor activity against mouse P388 cells allografted in CD2F1 mouse assessed as increase in mouse survival at 100 mg/kg, ip of total 9 doses starting 24 hrs post tumor inoculation measured on day 5 of inoculation relative to control; format: functional; settings: route intraperitoneal
assay.endpoint: T/C (%)
I only need the number, in %, no unit after it.

Examples with their reported T/C follow.
> print(dat)
                               smiles.entry  assay.endpoint  unit.annotation  readout.value
1  CNC(=O)OCc1c(COC(=O)NC)c(-c2ccc(N)cc2)n(C)c1C             T/C                %            135
2  CNC(=O)OCc1c(COC(=O)NC)c(-c2ccc(Sc3ccccc3)cc2)n(C)c1C             T/C                %            171

query: Look up T/C of CNC(=O)OCc1c(COC(=O)NC)c(-c2ccc(S(C)(=O)=O)cc2)n(C)c1C and report it.
result: 180

----------
test system: Staphylococcus aureus; test: Antimicrobial activity against Staphylococcus aureus ATCC 25923 at 1 mg after 24 hrs by disk sensitivity assay; format: functional, organism-based
The source made the active and inactive calls. The rule behind the calls is not given here.
assay.endpoint: Activity

> print(dat)
                               smiles.entry       target.or.system  readout.value
1  CNC(=O)OCc1c(COC(=O)NC)c(-c2ccc(C(C)(C)C)cc2)n(C)c1C  Staphylococcus aureus       inactive
2  CNC(=O)OCc1c(COC(=O)NC)c(-c2ccc(OC)cc2)n(C)c1C  Staphylococcus aureus         Active
3  CNC(=O)OCc1c(COC(=O)NC)c(-c2ccc([N+](=O)[O-])cc2)n(C)c1C  Staphylococcus aureus       inactive
4  CNC(=O)OCc1c(COC(=O)NC)c(-c2ccc(F)cc2)n(C)c1C  Staphylococcus aureus         Active

----------
test system: Mus musculus; test: Toxicity in mouse P388 cells allografted CD2F1 mouse assessed as body weight loss at 6.25 mg/kg, ip of total 9 doses starting 24 hrs post tumor inoculation measured on day 5 of inoculation relative to control; format: organism-based; set-up: dose 6.25 mg/kg, route intraperitoneal; conditions: in vivo
Property: Activity; scope: individual molecules
I only need the number, in g, no unit after it.

> print(dat)
                               smiles.entry  assay.endpoint  readout.value
1  CNC(=O)OCc1c(COC(=O)NC)c(-c2ccc(C(C)(C)C)cc2)n(C)c1C        Activity              2
2  CNC(=O)OCc1c(COC(=O)NC)c(-c2ccc(F)cc2)n(C)c1C        Activity            2.4
3  CNC(=O)OCc1c(COC(=O)NC)c(-c2ccc(Cl)c(Cl)c2)n(C)c1C        Activity            1.7
4  CNC(=O)OCc1c(COC(=O)NC)c(-c2ccc(OC)cc2)n(C)c1C        Activity            2.4

Let us move to another entry and its Activity.
query: Lab note: record Activity of CNC(=O)OCc1c(COC(=O)NC)c(-c2ccc(Cl)cc2)n(C)c1C tested on Mus musculus.
result: 3.4
